system: SN12C renal; assay: NCI-60 one-dose screen, 48 h; settings: 10 µM unless noted
About 83,000 compounds went through this panel and 20% of them were active in at least one assay; those are over-represented in the sample as a whole. Active and inactive are the calls of the source. The calls were made as follows: active = growth percent below 10; inactive = the rest.
Returns: one label drawn from active, inactive

Worked set:
>  <compound>
COc1cccc(NC(=O)c2sc3nc(C)c(C(=O)c4ccccc4)cc3c2N)c1

>  <assignedLabel>
inactive

$$$$
>  <compound>
O=C(Nc1ccccc1CNc1nc(Nc2ccc(OCCN3CCCC3)cc2)ncc1Cl)NC1CCCCC1

>  <assignedLabel>
inactive

$$$$
>  <compound>
Cc1oc2ccc(O)c(CN3CCCCCC3)c2c1C(=O)Nc1ccc(C(F)(F)F)cc1

>  <assignedLabel>
inactive

$$$$
>  <compound>
COc1cc(OCc2cccc(-c3ccccc3)c2C)cc(OC)c1CN1CCCCC1C(=O)NCCOCCOCCN (stereo not given)

>  <assignedLabel>
inactive

$$$$

Input line: // outcome(item) with item = "CC/C(=C(/c1ccc(Cl)cc1)c1ccc(OCCCN(C)C)cc1)c1ccc(OC)cc1"
Output line: inactive

Input line: Dear all, I need the recorded test outcome for "Nc1ncc(-c2ccc3ncnc(N4CCc5ccc(Cl)cc54)c3c2)cn1" , thank you.
Output line: active

Input line: Fill in: this test's call for "CCN1CCN(CCOc2ccc(CNc3ccc4nc(CCC5CCCCC5)[nH]c4c3)cc2)CC1" is ___
Output line: inactive

Input line: How was "O=C(Nc1ccccc1C(F)(F)F)C1=NCCCCN1" classified in this test?
Output line: inactive

Input line: Would you mind telling me which call this test gave "COc1ccc(NC(=O)c2sc3nc(C)c(C(=O)c4ccccc4)cc3c2N)cc1" ?
Output line: inactive

Input line: Which outcome did this test record for the compound CO[C@H]1/C=C/O[C@@]2(C)Oc3c(C)c(O)c4c(O)c(c5c(nc6cc(C)ccn65)c4c3C2=O)NC(=O)/C(C)=C\C=C\[C@H](C)[C@H](O)[C@@H](C)C(O)[C@@H](C)[C@H](OC(C)=O)[C@@H]1C (stereo not given in full) ?
Output line: inactive

Input line: What was the test verdict on "CC1=NN(c2cccc(Cl)c2)C(=O)/C1=C\C=C\c1ccccc1" ?
Output line: active

Input line: Kindly provide the recorded test outcome for the following compound: "[2H]C([2H])([2H])Oc1ccc(/C=C/C(=O)/C=C(O)/C=C/c2ccc(OC([2H])([2H])[2H])c(OC([2H])([2H])[2H])c2)cc1OC([2H])([2H])[2H]"
Output line: inactive

* * *

tested on: MDA-MB-435 melanoma; assay: NCI-60 one-dose screen, 48 h; conditions: 10 µM unless noted
This is part of a sample that, as a whole, favours compounds with a hit. Of some 83,000 tested, about 20% had one in any assay. Active and inactive are the calls of the source. The calls were made as follows: active = growth percent below 10; inactive = the rest.
Reply using exactly one outcome from active, inactive

Study these solved cases before continuing.
>  <chemSmiles>
COc1cc(/C=C2\C(=O)N(CCOc3cc(O)c4c(=O)cc(-c5ccccc5)oc4c3)c3ccccc32)cc(OC)c1O

>  <assignedLabel>
active

$$$$
>  <chemSmiles>
CC(=O)OCC(=O)O[C@@H]1C[C@]2(C(C)C)O[C@@]1(C)[C@@H]1CC[C@@H](C)[C@H]1[C@@H]2OC(=O)/C=C/c1ccccc1

>  <assignedLabel>
inactive

$$$$

Now, please, on to the next compound.
Input line: Recorded call for "C#Cc1cccc(Nc2nc(Cl)nc3cc(NC(=O)CCl)ccc23)c1" ?
Output line: active
